assay: qHTS assay to identify small molecule agonists of the RXR signaling pathway - cell viability counter screen (AID 1159529); details: RXR-alpha-bla HEK293T viability, CellTiter-Glo, 16 h; series mostly up to 76.8 µM; further: nearly all actives have a fitted effect of over 50% in size
Results filed as inconclusive are left out. Activity calls are given as the source filed them. The call rests on the fitted dose curve; in most records, active means well fitted cell-killing curve with a large enough effect in the repeat runs; inconclusive means weak or mixed curves, or effect the other way; inactive means no such curve, though single readings can be large or run the other way.
Classes used: 1 = active, -1 = inactive

COMPOUND | ASSIGNED_CLASS
CC/C(=C(\c1ccc(O)cc1)c1ccc(OCCN(C)C)cc1)c1ccccc1 | 1
CCCCC(CC)CN=C(N)NC(N)=NCCCCCCN=C(N)NC(N)=NCC(CC)CCCC (stereo not given) | 1
Oc1ccc(N=Nc2ccccc2)cc1 | -1
O=C1Cc2cc(CCN3CCN(c4nsc5ccccc45)CC3)c(Cl)cc2N1 | 1
CN(C)c1ccc(C2(c3ccc(N(C)C)cc3)OC(=O)c3cc(N(C)C)ccc32)cc1 | -1
CSc1ccc2c(c1)C(N1CCN(C)CC1)Cc1ccccc1S2 (stereo not given) | 1
CCCC(=O)OC[C@@H](OC(=O)CCC)[C@@H](OC(=O)CCC)[C@H](Cn1c2nc(=O)[nH]c(=O)c-2nc2cc(C)c(C)cc21)OC(=O)CCC | -1
Cc1onc(-c2c(Cl)cccc2Cl)c1C(=O)N[C@@H]1C(=O)N2[C@@H]1SC(C)(C)[C@@H]2C(=O)O | -1
OCCN(CCO)c1nc(N2CCCCC2)c2nc(N(CCO)CCO)nc(N3CCCCC3)c2n1 | -1
CC(C)(C)C1CCC(CC2=C(O)c3ccccc3C(=O)C2=O)CC1 (stereo not given) | -1
CCCCCCCC[N+](CCCCCCCC)(CCCCCCCC)CCCCCCCC | 1
CCOc1nc2cccc(C(=O)OC(C)OC(=O)OC3CCCCC3)c2n1Cc1ccc(-c2ccccc2-c2nn[nH]n2)cc1 (stereo not given) | 1
Cc1cc(C2CCCCC2)n(O)c(=O)c1 | -1
C[n+]1cc2c3c(ccc2c2ccc4cc5c(cc4c21)OCO5)OCO3 | 1
CC1(C)CCC(C)(C)c2cc(C(=O)Nc3ccc(C(=O)O)cc3)ccc21 | -1
c1ccc(CSCc2ccccc2)cc1 | -1
O=c1cc(-c2ccc(O)cc2)oc2cc(O)cc(O)c12 | -1
C=CC(=O)OCCn1c(=O)n(CCOC(=O)C=C)c(=O)n(CCOC(=O)C=C)c1=O | 1
O=C(Oc1ccccc1)c1ccccc1C(=O)Oc1ccccc1 | -1
CCCCCCCCCCCC(=O)NCCCN(C)C | 1
CCc1cc(Cc2cc(CC)cc(C(C)(C)C)c2O)c(O)c(C(C)(C)C)c1 | 1
CCCCC(CC)COC(=O)c1ccccc1C(=O)O (stereo not given) | -1
CC1=C(/C=C/C(C)=C/C=C/C(C)=C/C=O)C(C)(C)CCC1 | 1
N/C(=N\N=C\c1ccc(Cl)cc1)N/N=C/c1ccc(Cl)cc1 | 1
COc1cc(-c2nc(NC(=O)c3cc4cc(C)cc(C)c4n3CC(=O)O)sc2CCC2CCCCC2)c(OC)cc1Cl | 1
CCCCCCCC[P+](CCCCCCCC)(CCCCCCCC)CCCCCCCC | 1
CCOC(=O)/C=C(C)/C=C/C=C(C)/C=C/c1c(C)cc(OC)c(C)c1C | -1
CCOC(=O)O[C@]1(C(=O)OCCl)CC[C@H]2[C@@H]3CCC4=CC(=O)C=C[C@]4(C)[C@H]3[C@@H](O)C[C@@]21C | -1
CCCN(CCC)c1c([N+](=O)[O-])cc(C(F)(F)F)c(N)c1[N+](=O)[O-] | 1
O=C1C=CC(=O)N1c1ccc(Cc2ccc(N3C(=O)C=CC3=O)cc2)cc1 | 1
O=C1c2c(O)ccc(Nc3ccc(CCO)cc3)c2C(=O)c2c([N+](=O)[O-])ccc(O)c21 | -1
C/C(=C(/OCCOc1ccc(Cl)cc1)c1ccc(Cl)cc1Cl)n1ccnc1 | -1
Oc1cccc2cc3cccc(O)c3c(O)c12 | -1
O=C1CCCCCN1SSN1CCCCCC1=O | -1
Nc1ccc2cc(S(=O)(=O)O)cc(O)c2c1N=Nc1ccccc1C(F)(F)F | -1
